target of assay: N-SH3 domain of Crkl, D141A variant
assay name: other fluorescence titration; equilibrium: 1 µM N-SH3 D141A constant, increasing dansyl-C3G; quenching of Trp fluorescence at 350 nm (excitation 280 nm); hyperbolic fit; 50 mM Hepes pH 7.0, 10 °C
Ends that are not written are not given here. * marks the point of attachment. Dansyl = CN(C)c1cccc2c(S(=O)(=O)*)cccc12

{"columns": ["binder", "Kd (nM)"],
 "data": [
  ["Dansyl-VVDNSPPPALPPKKRQSAPS [dansylated C3G_(277–296) peptide]", 1070]
]}
